- assayed.system: T1, human EGFRvIII-hFc protein (human, UniProt P00533 25-645)
- T1 construct: extracellular domain; made in HEK293 cells, purified on protein A; also called immunogen A; hFc-tagged EGFRvIII protein; not shown: human IgG Fc fragment (hFc) of the pCpC vector
- assay.remarks: ELISA, coated EGFRvIII-hFc, antibody 0.001 nM
Reported OD450 nm values follow for various binders
value.type: OD450 nm

INSERT INTO assay_data (binder, value_type, test_result) VALUES
  ('Murine anti-46C4 (antibody, V domains shown, murine hybridoma antibody; also called 46C4A6) VH: EVHLQQSVAELVRPGASVKLSCTASGFNIKNTYMHWVKQRPEQGLEWIGRIDPANGNTKYAPKFQGKATITADTSSNTAYLQLSSLTSEDTAIYYCASDFDYWGQGTTLTVSS VL: DVLMTQTPLSLPVSLGDQVSISCRSSQSIVNSNGNTHLEWYLQKPGQSPKVLIYKVSKRFSGVPDRFSGSGSGTDFTLKISRVEAEDLGVYYCFQGSHVPYTFGGGTKLEIK', 'OD450 nm', 0.09),
  ('Murine anti-53D8 (antibody, V domains shown, murine hybridoma antibody; also called 53D8H4) VH: QVQLQQSGAELARPGASVKMSCKASGYTFTSYTMHWVKQRPGQGLEWIGYINPSSGYTKYNQIFKDKATLTADKSSSTAYMQLSSLTSEDSAVYYCTRGGGRGFAYWGQGTLVTVSA VL: DILMTQSPSSMSVSLGDTVSITCHASQDINSNIGWLQQKPGKSFKGLIYHGTNLEDGVPSRFSGSGSGADYSLTISSLESEDFADYYCVQYAQFPFTFGSGTKLEIK', 'OD450 nm', 0.1),
  ('Murine anti-59G3 (antibody, V domains shown, murine hybridoma antibody; also called 59G3F12) VH: DVQLQESGPGLVKPSQSLSLTCSVTGYSITSGYYWHWIRQFPENKLEWMGYISYDGSNIYNPSLKNRISITRDTSKNQFFLKLNSVTTEDTATYYCAINSDYALDYWGQGTSVTVSS VL: QIVLTQSPAIMSASPGEKVTMTCSASSSVSYMYWYQQKPGSSPRLLIYDTSNLASGVPVRFSGSGSGTSYSLTISRMEAEDAATYYCQQWSSYSLTFGAGTKLELK', 'OD450 nm', 0.08),
  ('Murine anti-56F10 (antibody, V domains shown, murine hybridoma antibody; also called 56F10G2) VH: EVQLQQSGAELVKPGASVKLSCTASGFNIKDFYMHWVKQRTEQGLEWIGRIDPEDGETKYAPKFQGKATITADTSSNTAYLQLSSLTSEDTAVYYCGCRTGGFAYWGQGTLVTVSA VL: QIVLTQSPAIMSASPGEKVTMTCSASSSVSYLYWYQQKPGSSPSLLIYDTSNLASGVPVRFSGSGSGTSYSLTISRMEAEDAATYYCQQWSRNPWTFGGGTKLEIK', 'OD450 nm', 0.1),
  ('Murine anti-64B11 (antibody, V domains shown, murine hybridoma antibody; also called 64B11F2) VH: EVQLQQSGAELVKPGASVKLSCTASGFNIKDYYMHWVKQRTEQGLEWIGRIDPEDGETKYAPKFQGKATITADTSSNTAYLQLSNLPSEDTAVYYCGCRTGGFAYWGQGTLVTVSA VL: DILMTQSPSSMSVSLGDTVSITCHASQGINSNIGWLQQKPGKSFKALIYHGTNLEDGVPSRFSGSGSGADYSLTISSLESEDFADYYCVQYAQFPFTFGSGTELEIK', 'OD450 nm', 0.08),
  ('Murine anti-75G7 (antibody, V domains shown, murine hybridoma antibody; also called 75G7C6) VH: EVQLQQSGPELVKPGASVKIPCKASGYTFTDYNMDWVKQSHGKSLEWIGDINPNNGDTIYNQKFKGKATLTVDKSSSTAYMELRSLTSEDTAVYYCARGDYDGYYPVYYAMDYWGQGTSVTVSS VL: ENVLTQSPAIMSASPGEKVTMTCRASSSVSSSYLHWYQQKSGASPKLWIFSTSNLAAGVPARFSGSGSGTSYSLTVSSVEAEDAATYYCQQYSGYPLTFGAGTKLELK', 'OD450 nm', 0.07),
  ('Murine anti-49G12 (antibody, V domains shown, murine hybridoma antibody; also called 49G12G5) VH: EVQLLQSGAELVKPGASVKLSCTASGFNIKDYYMHWVKQRTEQGLEWIGRIDPEDGETKYAPKFQGKATMTADTSSNTAYLQLSSLTSEDTAVYYCASSAYYGRNYWGQGTTLTVSS VL: QIVLTQSPAIMSASPGEKVTLTCSASSSLSSSYLYWYQQKPGSSPKLWIYSTSNLASGVPARFSGSGSGTSYSLTISSMEAEDAASYFCHQWSSYPYTFGGGTKLEIK', 'OD450 nm', 0.13);
